In this section we review reported pIC50 values for a set of compounds.
target: cGMP-specific 3',5'-cyclic phosphodiesterase, PDE5 (Sus scrofa); test: Inhibitory activity against cGMP-phosphodiesterase from porcine aorta
pIC50: −log10 of the molar value.

input-smiles | pIC50
Cc1ccc2ncnc(NCc3ccc4c(c3)OCO4)c2c1 | 7.00
OCc1ccc2ncnc(NCc3ccc4c(c3)OCO4)c2c1 | 6.03
COc1ccc2ncnc(NCc3ccc4c(c3)OCO4)c2c1 | 6.64
